Listing of entries alongside the reported inhibition at 1 µM.
- Target Desc: FKBP12 (Homo sapiens, UniProt P62942)
- Sequence (P62942 whole entry, species assumed): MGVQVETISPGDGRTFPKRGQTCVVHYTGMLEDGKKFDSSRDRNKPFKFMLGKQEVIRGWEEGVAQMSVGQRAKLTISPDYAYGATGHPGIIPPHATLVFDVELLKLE
- Procedure Text: FKBP12 Rotamase Inhibition Assay
- Type: biochemical
- Test Settings: Table 4; 1 μM; read-out: % rotamase inhib. at 1 μM
Property Name: inhibition at 1 µM (%)

>>> observed_value("COc1cc(C(=O)C(=O)N2CCCC[C@H]2CCC(=O)N(CCCc2ccccc2)CCCc2cccnc2)cc(OC)c1OC")
0
>>> observed_value("COc1cc(C(F)(F)C(=O)N2CCCC[C@H]2CCC(=O)N(CCCc2ccccc2)CCCc2cccnc2)cc(OC)c1OC")
0
>>> observed_value("COc1cc(C(=O)C(=O)N2CCC[C@H]2CCC(=O)N(CCCc2ccccc2)CCCc2cccnc2)cc(OC)c1OC")
1
>>> observed_value("COc1cc(C(F)(F)C(=O)N2CCC[C@H]2CCC(=O)N(CCCc2ccccc2)CCCc2cccnc2)cc(OC)c1OC")
42

###

- Target Desc: UniProtKB P62942
- Procedure Text: FKBP12 Rotamase Inhibition Assay
- Type: biochemical
- Test Settings: Table 2; 10 μM; read-out: % inhib. at 10 μM
Listing of entries alongside the reported inhibition at 10 µM.
Property Name: inhibition at 10 µM (%)

>>> observed_value("COc1cc(C(F)(F)C(=O)N2CCC[C@H]2COC(=O)N(CCCCc2cccnc2)CCc2ccccc2)cc(OC)c1OC")
97
>>> observed_value("COc1cc(C(F)(F)C(=O)N2CCC[C@H]2COC(=O)N(CCCCc2ccccc2)CCCc2cccnc2)cc(OC)c1OC")
99
>>> observed_value("COc1cc(C(=O)C(=O)N2CCC[C@H]2COC(=O)N(CCCc2cccnc2)Cc2ccccc2)cc(OC)c1OC")
79
>>> observed_value("COc1cc(C(=O)C(=O)N2CCCCC2COC(=O)N(CCCc2ccccc2)CCCc2cccnc2)cc(OC)c1OC (racemic)")
11
>>> observed_value("COc1cc(C(F)(F)C(=O)N2CCC[C@H]2COC(=O)N(CCCc2cccnc2)Cc2ccccc2)cc(OC)c1OC")
99
>>> observed_value("COc1cc(C(F)(F)C(=O)N2CCC[C@H]2COC(=O)N(CCCc2cccnc2)CCc2ccccc2)cc(OC)c1OC")
97
>>> observed_value("COc1cc(C(=O)C(=O)N2CCC[C@H]2COC(=O)N(CCCCc2cccnc2)CCc2ccccc2)cc(OC)c1OC")
82

###

- Target Desc: FKBP12 (Homo sapiens, UniProt P62942)
Property Name: Ki (nM)

>>> observed_value("COc1cc(C(F)(F)C(=O)N2CCC[C@H]2COC(=O)N(CCCCc2ccccc2)CCCCc2cccnc2)cc(OC)c1OC")
271
>>> observed_value("COc1cc(C(=O)C(=O)N2CCC[C@H]2COC(=O)N(CCCCc2ccccc2)CCCc2cccnc2)cc(OC)c1OC")
537
>>> observed_value("COc1cc(C(F)(F)C(=O)N2CCC[C@H]2COC(=O)N(CCCc2ccccc2)CCCc2cccnc2)cc(OC)c1OC")
113
>>> observed_value("COc1cc(C(F)(F)C(=O)N2CCC[C@H]2COC(=O)N(CCCCc2ccccc2)CCCc2cccnc2)cc(OC)c1OC")
158
>>> observed_value("COc1cc(C(F)(F)C(=O)N2CCC[C@H]2COC(=O)N(CCCc2cccnc2)Cc2ccccc2)cc(OC)c1OC")
577
>>> observed_value("COc1cc(C(=O)C(=O)N2CCC[C@H]2COC(=O)N(CCCc2ccccc2)CCCc2cccnc2)cc(OC)c1OC")
447

###

- Target Desc: FKBP12 (Homo sapiens, UniProt P62942)
- Procedure Text: FKBP12 Rotamase Inhibition Assay
- Type: biochemical
- Test Settings: Table 3; 1 μM; read-out: % rotamase inhib. at 1 μM
Property Name: inhibition at 1 µM

>>> observed_value("COc1ccc(CCCN(CCCc2cccnc2)C(=O)OC[C@@H]2CCCN2C(=O)C(F)(F)c2cc(OC)c(OC)c(OC)c2)cc1 [Example 38]")
"95%"
>>> observed_value("COc1cccc(CCN(CCCc2cccnc2)C(=O)OC[C@@H]2CCCN2C(=O)C(F)(F)c2cc(OC)c(OC)c(OC)c2)c1 [Example 32]")
"93%"
>>> observed_value("COc1cccc(CCCN(CCCc2cccnc2)C(=O)OC[C@@H]2CCCN2C(=O)C(=O)c2cc(OC)c(OC)c(OC)c2)c1 [Example 17]")
"75%"
>>> observed_value("COc1cc(C(F)(F)C(=O)N2CCC[C@H]2COC(=O)N(CCCc2cccnc2)CCc2cccc(C(F)(F)F)c2)cc(OC)c1OC [Example 34]")
"96%"
>>> observed_value("COc1ccc(CCN(CCCc2cccnc2)C(=O)OC[C@@H]2CCCN2C(=O)C(F)(F)c2cc(OC)c(OC)c(OC)c2)cc1OC [Example 33]")
"96%"
